- System: 186277-243-T-J2-PDC complex spheroid viability;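 also: 7 day exposure to compounds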
- ASSAY INFO: Anticancer human tumor 186277-243-T-J2-PDC patient-derived colon adenocarcinoma cell line growth inhibition; active = viability on the fitted dose curve at most 10% of control; inactive = the rest
- CONDITION SET: second compound 10 µM; first compound 10 µM
Could you please pick one outcome from this set? active, inactive

Inquiry: # lookup: test call for CC(C)c1c(-c2ccccc2)nc2c(C#N)c[nH]n2c1=O + NC1CCC(NC2CC2c2ccccc2)CC1
Reply text: inactive

Inquiry: # lookup: test call for COc1ccc([C@@H](O)c2cc(-c3ncnc4cc(N5CCOCC5)ccc34)c(F)cc2Cl)nn1 + NC1CCC(NC2CC2c2ccccc2)CC1
Reply text: active

Inquiry: # lookup: test call for CC(C)c1c(-c2ccccc2)nc2c(C#N)c[nH]n2c1=O + NC1CC1c1ccc(-c2cccc(O)c2)cc1
Reply text: inactive

Inquiry: # lookup: test call for CC1COCCN1c1cc(C2(S(C)(=N)=O)CC2)nc(-c2ccnc3[nH]ccc23)n1 (centres undefined) + NC1CCC(NC2CC2c2ccccc2)CC1
Reply text: inactive
